# IC50 per entry
# Assayed system: DRB1*0405
# Experimental protocol: binding to purified HLA
Output spec: scalar in nM, unitless text.

These recorded examples may help you get a feel for the data.
> print(dat)
                           binder  reported
1        AAAYFVAAWTLHAAA [Y4.H12]       6.9
2     AAAYFVAANTLHAAA [Y4.N9.H12]        13
3  AAAKFVAAWTLKAAA [SEQ ID NO: 4]        25

Please look at the following binder next.
# input Kindly indicate its recorded IC50. Item: AAAFFVAANTLHAAA [F4.N9.H12]
# output 27
